# test protocol: Prodrug conversion assessed as porcine liver Esterase-mediated compound hydrolysis by measuring half life by HPLC analysis
# Assay type: ADME, Sus scrofa
# condition: pig, isolated protein
measured parameter: t1/2 (min)
One number for each entry, in min.

Example results:
• Cl.NC(=O)CC[C@H](N)C(=O)OCCOc1cccc2c1C(=O)c1c(OCCOC(=O)[C@@H](N)CCC(N)=O)cc(NC(=O)CCl)cc1C2=O = 73
• CC[C@H](C)[C@H](N)C(=O)OCCOc1cccc2c1C(=O)c1c(OCCOC(=O)[C@@H](N)[C@@H](C)CC)cc(NC(=O)CCl)cc1C2=O.Cl = 24.3

Hi there! I need t1/2 for each item below, if you can.
1. Cl.N[C@@H](Cc1ccc(O)cc1)C(=O)OCCOc1cccc2c1C(=O)c1c(OCCOC(=O)[C@@H](N)Cc3ccc(O)cc3)cc(NC(=O)CCl)cc1C2=O
2. Cl.N[C@@H](CCC(=O)O)C(=O)OCCOc1cccc2c1C(=O)c1c(OCCOC(=O)[C@@H](N)CCC(=O)O)cc(NC(=O)CCl)cc1C2=O
3. Cl.N=C(N)NCCC[C@H](N)C(=O)OCCOc1cccc2c1C(=O)c1c(OCCOC(=O)[C@@H](N)CCCNC(=N)N)cc(NC(=O)CCl)cc1C2=O
4. CC(C)C[C@H](N)C(=O)OCCOc1cccc2c1C(=O)c1c(OCCOC(=O)[C@@H](N)CC(C)C)cc(NC(=O)CCl)cc1C2=O.Cl
5. C[C@H](N)C(=O)OCCOc1cccc2c1C(=O)c1c(OCCOC(=O)[C@H](C)N)cc(NC(=O)CCl)cc1C2=O.Cl
6. Cl.N[C@@H](Cc1ccccc1)C(=O)OCCOc1cccc2c1C(=O)c1c(OCCOC(=O)[C@@H](N)Cc3ccccc3)cc(NC(=O)CCl)cc1C2=O
7. CC(C)[C@H](N)C(=O)OCCOc1cccc2c1C(=O)c1c(OCCOC(=O)[C@@H](N)C(C)C)cc(NC(=O)CCl)cc1C2=O.Cl
8. Cl.NCC(=O)OCCOc1cccc2c1C(=O)c1c(OCCOC(=O)CN)cc(NC(=O)CCl)cc1C2=O

1: 1.7; 2: 117.9; 3: 63; 4: 2.5; 5: 6.2; 6: 1; 7: 25.3; 8: 10.1

Hi there! I need t1/2 for each item below, if you can.
1. Cl.NCCCC[C@H](N)C(=O)OCCOc1cccc2c1C(=O)c1c(OCCOC(=O)[C@@H](N)CCCCN)cc(NC(=O)CCl)cc1C2=O
2. CSCC[C@H](N)C(=O)OCCOc1cccc2c1C(=O)c1c(OCCOC(=O)[C@@H](N)CCSC)cc(NC(=O)CCl)cc1C2=O.Cl

[44.2, 3.7]

====

# test protocol: Prodrug conversion in PBS buffer assessed as half life at pH 7.4 and 37 degC by HPLC analysis
# Assay type: physicochemical
Mark 1 for t1/2 under 2 h, -1 if at or over.

Sample answers from the record:
* Cl.NCCCC[C@H](N)C(=O)OCCOc1cccc2c1C(=O)c1c(OCCOC(=O)[C@@H](N)CCCCN)cc(NC(=O)CCl)cc1C2=O | -1
* Cl.NCC(=O)OCCOc1cccc2c1C(=O)c1c(OCCOC(=O)CN)cc(NC(=O)CCl)cc1C2=O | 1
* Cl.N[C@@H](CCC(=O)O)C(=O)OCCOc1cccc2c1C(=O)c1c(OCCOC(=O)[C@@H](N)CCC(=O)O)cc(NC(=O)CCl)cc1C2=O | -1

Here's an entry: CC(C)[C@H](N)C(=O)OCCOc1cccc2c1C(=O)c1c(OCCOC(=O)[C@@H](N)C(C)C)cc(NC(=O)CCl)cc1C2=O.Cl . Is its t1/2 below 2 h?
-1

Here's an entry: Cl.N[C@@H](Cc1ccccc1)C(=O)OCCOc1cccc2c1C(=O)c1c(OCCOC(=O)[C@@H](N)Cc3ccccc3)cc(NC(=O)CCl)cc1C2=O . Is its t1/2 below 2 h?
1

Here's an entry: C[C@H](N)C(=O)OCCOc1cccc2c1C(=O)c1c(OCCOC(=O)[C@H](C)N)cc(NC(=O)CCl)cc1C2=O.Cl . Is its t1/2 below 2 h?
1
